METHOD_DESCRIPTION: Antioxidant activity assessed as DPPH radical scavenging activity by spectrophotometry
Type: functional
PARAMETER: pIC50
Quick note: pIC50 means taking -log10 of the concentration in moles per liter.

stdin: # lookup: pIC50 of `CN1c2cc(C(=O)c3ccccc3)cc(C(=O)O)c2Nc2cccc(C(N)=O)c21`
stdout: 5.08

----------
Below, each of the molecules is paired with its reported inhibition zone (IZ) value.
Tested on: Bacillus subtilis
METHOD_DESCRIPTION: Antibacterial activity against gram-positive Bacillus subtilis 168 assessed as zone of inhibition by agar diffusion assay
Assay type: functional, subsp. subtilis str. 168
Write down the numeric answer in mm and omit the unit.

Record excerpt, results attached:
CO[C@H]1[C@H](Oc2cccc3nc4c(C(N)=O)cccc4nc23)O[C@@H](C)[C@H](O)[C@H]1O ... 8
C[C@@H]1O[C@@H](OC(C)(C)/C=C/c2cccc3nc4cccc(C(=O)O)c4nc23)[C@H](O)[C@H](O)[C@H]1O ... 8
CO[C@H]1[C@H](OC(=O)c2cccc3nc4cccc(C/C=C(\C)CO)c4nc23)O[C@@H](C)[C@H](O)[C@H]1O ... 14
C/C(=C\Cc1cccc2nc3cccc(C(=O)O[C@@H]4O[C@@H](C)[C@H](O)[C@@H](O)[C@H]4O)c3nc12)CO ... 8
CO[C@H]1[C@H](OC(=O)c2cccc3nc4ccccc4nc23)O[C@@H](C)[C@H](O)[C@H]1O ... 15

Here is another molecule to look at.
stdin: # lookup: inhibition zone (IZ) of `CC(C)=CCc1cc(=O)cc2n(C/C=C(\C)CO)c3cccc(C(=O)O)c3nc1-2`
stdout: 8
